Origin of measurements: BindingDB's records for patent US9192603

measurement.target: Metabotropic glutamate receptor 4 (Homo sapiens, UniProt Q14833)
Sequence (Q14833 whole entry): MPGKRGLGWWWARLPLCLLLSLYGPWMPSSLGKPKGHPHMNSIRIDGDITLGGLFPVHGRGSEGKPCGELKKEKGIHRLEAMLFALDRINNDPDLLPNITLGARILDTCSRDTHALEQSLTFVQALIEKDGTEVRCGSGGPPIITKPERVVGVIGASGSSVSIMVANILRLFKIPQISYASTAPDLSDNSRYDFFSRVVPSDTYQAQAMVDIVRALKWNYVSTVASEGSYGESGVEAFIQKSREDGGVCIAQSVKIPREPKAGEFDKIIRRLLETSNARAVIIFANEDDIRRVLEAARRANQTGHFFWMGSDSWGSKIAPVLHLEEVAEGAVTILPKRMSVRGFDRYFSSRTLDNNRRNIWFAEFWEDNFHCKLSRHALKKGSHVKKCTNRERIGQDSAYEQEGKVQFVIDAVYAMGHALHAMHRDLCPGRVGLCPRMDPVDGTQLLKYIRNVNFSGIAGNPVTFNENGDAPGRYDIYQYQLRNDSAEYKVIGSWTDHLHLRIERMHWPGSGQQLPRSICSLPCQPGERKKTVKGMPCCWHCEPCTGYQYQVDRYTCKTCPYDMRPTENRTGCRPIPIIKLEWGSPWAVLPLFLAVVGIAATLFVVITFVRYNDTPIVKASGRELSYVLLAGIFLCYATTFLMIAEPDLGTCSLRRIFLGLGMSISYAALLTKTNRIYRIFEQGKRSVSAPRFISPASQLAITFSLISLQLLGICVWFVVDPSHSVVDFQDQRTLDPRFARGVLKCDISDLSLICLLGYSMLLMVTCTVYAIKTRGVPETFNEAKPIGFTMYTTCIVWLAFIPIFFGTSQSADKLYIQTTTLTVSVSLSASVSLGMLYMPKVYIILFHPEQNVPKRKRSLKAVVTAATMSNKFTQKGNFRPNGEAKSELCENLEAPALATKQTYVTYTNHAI
experimental.details: Receptor Activity Assay
parameter.measured: EC50

Record CC(C)c1nc(NC(=O)c2ccccn2)sc1S(=O)(=O)Cc1ccc(F)cc1F [US9192603, 65] : what is its EC50 with Metabotropic glutamate receptor 4 (Homo sapiens, UniProt Q14833)?
> 10 µM
